target: c-Myc/Max/Ebox DNA (Homo sapiens, UniProt P01106); construct: his6 (cleaved yes); experiment: c-Myc/Max/Ebox DNA AlphaScreen Assay; conditions: free c-Myc 20 nM, his6-Max 5 nM, biotinylated Ebox oligo 10 nM, 2 hour incubation
Sequence (P01106 whole entry): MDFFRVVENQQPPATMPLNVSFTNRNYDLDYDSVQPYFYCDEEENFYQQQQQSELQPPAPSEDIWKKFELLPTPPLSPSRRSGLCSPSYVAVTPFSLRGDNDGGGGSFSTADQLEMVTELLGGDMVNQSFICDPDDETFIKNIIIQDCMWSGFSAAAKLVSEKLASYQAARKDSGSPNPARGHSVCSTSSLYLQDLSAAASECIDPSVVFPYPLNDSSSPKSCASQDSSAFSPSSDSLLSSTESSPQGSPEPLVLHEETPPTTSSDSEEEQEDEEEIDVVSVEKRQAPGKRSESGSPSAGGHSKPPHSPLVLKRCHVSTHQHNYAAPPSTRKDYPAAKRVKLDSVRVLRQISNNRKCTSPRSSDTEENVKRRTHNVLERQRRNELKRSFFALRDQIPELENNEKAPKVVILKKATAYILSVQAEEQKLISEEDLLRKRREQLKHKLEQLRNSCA
outcome measure: IC50

[
  {
    "compound": "CC(=O)Nc1sc2c(c1-c1nc3cnccc3s1)C[C@@H](C)N[C@H]2C [Compound 237]",
    "IC50": "500 to 5000 nM"
  },
  {
    "compound": "COCC1CCCN1CCC(=O)Nc1sc2c(c1-c1nc3cnccc3s1)CCNC2 (stereo not shown) [Compound 169]",
    "IC50": "< 500 nM"
  },
  {
    "compound": "Cc1ncc(CNCCC(=O)Nc2sc3c(c2-c2nc4cnccc4s2)CCNC3)s1 [Compound 186]",
    "IC50": "500 to 5000 nM"
  }
]

Please examine the following record next.
Task item: Query (compound): O=C(CCN1CC(F)(F)C1)Nc1sc2c(c1-c1nc3cnccc3s1)CCNC2 [Compound 194] ; field requested: IC50
Reply: 500 to 5000 nM

---

target: c-Myc/Max/Ebox DNA (Homo sapiens); construct: his6 (cleaved yes); experiment: c-Myc/Max/Ebox DNA AlphaScreen Assay; conditions: free c-Myc 20 nM, his6-Max 5 nM, biotinylated Ebox oligo 10 nM, 2 hour incubation
pIC50: −log10 of the molar value.
outcome measure: pIC50

[
  {
    "compound": "Cc1ccsc1CNCCC(=O)Nc1sc2c(c1-c1nc3cnccc3s1)CCNC2",
    "reported measurement": "> 6.30"
  },
  {
    "compound": "O=C(CCN[C@H]1CC[C@]2(CCC(=O)N2)CC1)Nc1sc2c(c1-c1nc3cnccc3s1)CCNC2",
    "reported measurement": "> 6.30"
  },
  {
    "compound": "O=C(CCNC1CNCC1O)Nc1sc2c(c1-c1nc3cnccc3s1)CCNC2 (centres unmarked)",
    "reported measurement": "> 6.30"
  },
  {
    "compound": "O=C(CCN1CC2COCC2C1)Nc1sc2c(c1-c1nc3cnccc3s1)CCNC2 (centres unmarked)",
    "reported measurement": "> 6.30"
  },
  {
    "compound": "O=C(CCNCC1(O)CC1)Nc1sc2c(c1-c1nc3cnccc3s1)CCNC2",
    "reported measurement": "> 6.30"
  },
  {
    "compound": "CC(C)c1nc(CNCCC(=O)Nc2sc3c(c2-c2nc4cnccc4s2)CCNC3)no1",
    "reported measurement": "5.30 to 6.30"
  },
  {
    "compound": "CN(C)[C@H]1CCN(CCC(=O)Nc2sc3c(c2-c2nc4cnccc4s2)CCNC3)C1",
    "reported measurement": "> 6.30"
  }
]

Please examine the following record next.
Task item: Query (compound): "O=C(CCN1CC2CCC(C1)O2)Nc1sc2c(c1-c1nc3cnccc3s1)CCNC2" ; field requested: pIC50
Reply: 5.30 to 6.30

---

target: c-Myc/Max/Ebox DNA (Homo sapiens, UniProt P01106); construct: his6 (cleaved yes); test: c-Myc/Max/Ebox DNA AlphaScreen Assay; conditions: free c-Myc 20 nM, his6-Max 5 nM, biotinylated Ebox oligo 10 nM, 2 hour incubation
pIC50: −log10 of the molar value. Counter-ions that a name gives are not always drawn.
pIC50 values for the compounds below.

Worked cases, answers included:
[
  {
    "compound": "O=C(CCNC(CO)c1ccc(F)cc1)Nc1sc2c(c1-c1nc3cnccc3s1)CCNC2 (stereo not shown)",
    "pIC50": "5.30 to 6.30"
  },
  {
    "compound": "O=C(CCNCc1ncc[nH]1)Nc1sc2c(c1-c1nc3cnccc3s1)CCNC2",
    "pIC50": "> 6.30"
  },
  {
    "compound": "N[C@@H]1[C@H]2CN(CCC(=O)Nc3sc4c(c3-c3nc5cnccc5s3)CCNC4)C[C@@H]12",
    "pIC50": "> 6.30"
  }
]

Task item: Query (compound): CC1CC1NCCC(=O)Nc1sc2c(c1-c1nc3cnccc3s1)CCNC2 (stereo not shown) ; field requested: pIC50
Reply: > 6.30

Task item: Query (compound): CC(=O)Nc1sc2c(c1-c1nc3c(C)nc(C)cc3s1)CCNC2 [Compound 228, hydrochloride] ; field requested: pIC50
Reply: > 6.30

Task item: Query (compound): "CC(=O)Nc1sc2c(c1-c1nc3cnccc3s1)CCN(C(C)C)C2" ; field requested: pIC50
Reply: 5.30 to 6.30

Task item: Query (compound): "CN(C)CCC(=O)Nc1sc2c(c1-c1nc3cnccc3s1)CCNC2" ; field requested: pIC50
Reply: > 6.30

Data origin, for the record: patent US11753418B2
